Tested on: Caenorhabditis elegans
assayMethodText: Caenorhabditis elegans test (treated NGM agar plate, young adults)
Type: in vivo
measurementContext: 200 μg/ml
measuredEndpoint: Size of descendant population

[[record]]
compound = "COc1ccc2c(c1)OC(C)(C)C=C2 [Compound 23, 7-methoxy-2,2-dimethyl-2H-chromene, reference compound]"
measuredendpoint = "Size of descendant population"
recordedmeasurement = "reduced"

[[record]]
compound = "C#CCOc1cc(C)c2c(c1)OC(C)(C)C=C2 [Compound 44]"
measuredendpoint = "Size of descendant population"
recordedmeasurement = "some descendants"

[[record]]
compound = "CCC(C)Oc1ccc2c(c1OC)OC(C)(C)C=C2 (centres unmarked) [Compound 53]"
measuredendpoint = "Size of descendant population"
recordedmeasurement = "reduced"

[[record]]
compound = "CCOc1cc2c(cc1OC)C=CC(C)(C)O2 [Compound 3, reference compound]"
measuredendpoint = "Size of descendant population"
recordedmeasurement = "some descendants"


====

Tested on: Caenorhabditis elegans
assayMethodText: Caenorhabditis elegans test (treated NGM agar plate, young adults)
Type: in vivo
measurementContext: 200 μg/ml
measuredEndpoint: Size of descendant population

Solved cases below.
[[record]]
compound = "CC1(C)C=Cc2cc3c(cc2O1)OCO3"
measuredendpoint = "Size of descendant population"
recordedmeasurement = "no descendants"

[[record]]
compound = "COc1cc2c(cc1OC)OC(C)(C)C=C2 [Compound 1, 6,7-dimethoxy-2,2-dimethyl-2H-chromene, reference compound]"
measuredendpoint = "Size of descendant population"
recordedmeasurement = "no descendants"

[[record]]
compound = "CCOc1ccc2c(c1OC)OC(C)(C)C=C2"
measuredendpoint = "Size of descendant population"
recordedmeasurement = "reduced"

[[record]]
compound = "CCCCOc1cc2c(cc1OCCCC)OC(C)(C)C=C2"
measuredendpoint = "Size of descendant population"
recordedmeasurement = "reduced"

[[record]]
compound = "COc1c(OC(C)C)ccc2c1OC(C)(C)C=C2"
measuredendpoint = "Size of descendant population"
recordedmeasurement = "reduced"


Notebook entry, Caenorhabditis elegans assay: Size of descendant population of COc1cc2c(cc1OC(C)C)OC(C)(C)C=C2 = ? reduced

How about COc1ccc2c(c1OC)OC(C)(C)C=C2 ? reduced

Please do the same for CCOc1cc2c(cc1OC)OC(C)(C)C=C2 as well. reduced

Item: C#CCOc1ccc2c(c1)OC(C)(C)C=C2 no descendants

====

Tested on: tomato root gall nematode (Meloidogyne incognita)
assayMethodText: Tomato root gall nematode test (II. stage infective larvae, treated NGM agar plate)
Type: in vivo
measurementContext: Meloidogyne incognita; 400 μg/ml, 72 hours, first test; read-out: mortality 1.
Measured mortality at 400 µg/mL by item

See these solved cases before continuing.
[[record]]
molecule = "CCOc1cc2c(cc1OC)C=CC(C)(C)O2 [Compound 3, reference compound]"
measuredendpoint = "mortality at 400 µg/mL"
recordedmeasurement = "100%"

[[record]]
molecule = "CC1(C)C=Cc2cc3c(cc2O1)OCO3"
measuredendpoint = "mortality at 400 µg/mL"
recordedmeasurement = "96%"

[[record]]
molecule = "COc1cc2c(cc1OC)OC(C)(C)C=C2 [Compound 1, 6,7-dimethoxy-2,2-dimethyl-2H-chromene, reference compound]"
measuredendpoint = "mortality at 400 µg/mL"
recordedmeasurement = "98%"

[[record]]
molecule = "C=CCOc1cc2c(cc1OCC=C)OC(C)(C)C=C2"
measuredendpoint = "mortality at 400 µg/mL"
recordedmeasurement = "45%"


Let's switch to this molecule now.
Look at this molecule and give its reported mortality at 400 µg/mL. CCOc1cc2c(cc1OCC)OC(C)(C)C=C2 83%
